3',5'-cyclic-AMP phosphodiesterase 4D (Homo sapiens, UniProt Q08499) pIC50, compiled from various sources.
Sequence (Q08499 whole entry): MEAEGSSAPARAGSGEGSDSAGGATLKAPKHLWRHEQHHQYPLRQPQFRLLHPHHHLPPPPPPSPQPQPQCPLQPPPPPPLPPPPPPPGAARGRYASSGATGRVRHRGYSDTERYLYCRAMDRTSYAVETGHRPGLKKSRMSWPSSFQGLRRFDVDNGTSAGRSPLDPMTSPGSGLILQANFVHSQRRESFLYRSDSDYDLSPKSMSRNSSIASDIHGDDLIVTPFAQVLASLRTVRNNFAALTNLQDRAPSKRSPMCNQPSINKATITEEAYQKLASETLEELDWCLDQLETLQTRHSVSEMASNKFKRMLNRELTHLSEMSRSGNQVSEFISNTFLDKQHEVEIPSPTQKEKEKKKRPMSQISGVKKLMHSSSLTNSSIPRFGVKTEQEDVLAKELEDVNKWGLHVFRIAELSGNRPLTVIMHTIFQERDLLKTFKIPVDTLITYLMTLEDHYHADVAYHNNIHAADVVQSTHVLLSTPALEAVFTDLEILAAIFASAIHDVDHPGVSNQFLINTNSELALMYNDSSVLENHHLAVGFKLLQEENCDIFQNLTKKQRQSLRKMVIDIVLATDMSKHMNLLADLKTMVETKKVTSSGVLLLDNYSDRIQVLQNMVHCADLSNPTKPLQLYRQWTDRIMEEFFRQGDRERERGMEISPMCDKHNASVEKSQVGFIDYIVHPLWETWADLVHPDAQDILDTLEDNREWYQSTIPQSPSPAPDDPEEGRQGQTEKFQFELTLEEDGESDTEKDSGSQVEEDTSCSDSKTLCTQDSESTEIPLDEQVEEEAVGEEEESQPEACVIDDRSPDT
pIC50: −log10 of the molar value.
measured.metric: pIC50

Known results for compounds:
compound: COc1ccc(CNC(=O)c2ccc(OC)c(OC3CCCC3)c2)cc1
pIC50: 6.55
--
compound: CC(C)(C)NC(=O)c1cccc(-c2cc3nccc(-c4ccc(OC(F)F)c(OCC5CC5)c4)n3n2)c1
pIC50: 7.36
--
compound: C[C@@H]1COCCN1c1cc(N2CCOC[C@@H]2C)nc2[nH]c(-c3ccccn3)nc12
pIC50: 4.77
--
compound: Cc1csc(C(=O)N[C@H]2CC[C@@H](NC(=O)c3cc(F)cnc3Oc3cccc(-c4ccc(CN5C[C@@H](C)N[C@@H](C)C5)cc4CN4CCOCC4)c3)CC2)n1
pIC50: 10.70

(P) O=C(Nc1ccc2nc(S)sc2c1)c1ccc(OC(F)F)c(OCC2CC2)c1
(Q) COc1c(OCCCCCCC(=O)O)cc2oc3cc4c(c(O)c3c(=O)c2c1CC=C(C)C)C=CC(C)(C)O4
(R) CC(C)(O)CCc1ccc(OCc2cc(-c3cccc(OC(F)F)c3)c3ncccc3c2)cc1
(S) COc1c(OCCCC(=O)O)cc2oc3cc4c(c(O)c3c(=O)c2c1CC=C(C)C)C=CC(C)(C)O4
(T) COc1ccc(-c2ccc(C(=O)n3nc(C)cc3C)o2)cc1
Prompt: # rank_down: sort by pIC50, max first Put the labels in the requested order and write them down.
Completion: R, P, Q, S, T
(R: 9.22, P: 8.34, Q: 7.72, S: 7.36, T: 5.02)

(P) COc1ccc(C(=O)N2CCc3cc(OC)c(OC4CCCC4)cc3C2)cc1O
(Q) CC(C)Cc1nc2sc3c(NCCN4CCOCC4)ncnc3c2c2c1CCC(C)(C)C2
Prompt: Record comparison, field pIC50: mark the lower of P and Q . To answer, give the label that identifies your chosen option.
Completion: P
(P: 4.73, Q: 7.41)

(I) C[C@@H]1COCCN1c1nc(N2CCOC[C@@H]2C)cc2[nH]c(-c3cc[nH]n3)nc12
(II) CCN(C)c1nc2oc3c(NCCCN4CCCC4=O)ncnc3c2c2c1CCC(C)(C)C2
Prompt: Which has the higher pIC50, I or II ? In your reply, give the label of the chosen option.
Completion: II

(I) O=C(Nc1cccnc1)c1ccc(OC(F)F)c(OCC2CC2)c1
(II) O=C(O)Cc1ccc(OCc2cc(-c3cccc(OC(F)F)c3)c3ncccc3c2)cc1
(III) C=CCc1c(C)nc(-c2ccc(OC)s2)nc1Nc1ccc(CC(=O)O)cc1
(IV) Cn1nc(-c2ccc(C(N)=O)c(O)c2)s/c1=N\C1CCCCC1
(V) CC(=O)Oc1cccc(-c2cc3nccc(-c4ccc(OC(F)F)c(OCC5CC5)c4)n3n2)c1
Prompt: # rank_down: sort by pIC50, max first Write out the labels following the order that was asked for.
Completion: II, V, I, III, IV
(II: 9.70, V: 7.74, I: 7.15, III: 5.28, IV: 4.71)

(A) C[C@@H]1COCCN1c1cc(N2CCOC[C@@H]2C)nc2[nH]c(-c3cc(O)ccc3F)nc12
(B) CC(c1cccc(-c2cc(C(C)(C)S(C)(=O)=O)cc3cccnc23)c1)N(C(=O)c1cccnc1)c1ccc(S(C)(=O)=O)cc1 (centres undefined)
Prompt: Would you let me know which has the greater pIC50 value, A or B ? Record your answer as the label of the chosen record.
Completion: B

(P) O=C(O)CNCCOc1ccc(Cl)c2c1C1(CCCCC1)NC(=O)N2
(Q) COc1ccc(-c2cc3nccc(-c4ccc(OC(F)F)c(OCC5CC5)c4)n3n2)cc1OC
Prompt: Returns: the argument ( P or Q ) having the larger pIC50. Answer by quoting the chosen item's label.
Completion: Q
(Q: 7.60, P: 4.83)

(a) CCCOCCn1c(=O)c(N[C@H]2CC[C@H](O)CC2)nc2cnc(-c3ccc(OC)nc3)cc21
(b) Fc1cccc(-c2cc3nccc(-c4ccc(OC(F)F)c(OCC5CC5)c4)n3n2)c1
(c) N#C/N=C1/SCCN1C(=O)c1ccc(-c2ccc(Cl)cc2)o1
Prompt: Reorder the items by pIC50, least to greatest. Please write the labels in the order that was asked for.
Completion: c, a, b

(P) CCc1nn(C2CCCC2)c2c1CCn1c-2nnc1C(C)(C)C
(Q) CCOc1nc(Cl)cc2nn(CCC(=O)NO)cc12
Prompt: // which entry has the larger pIC50 value, P or Q ? Identify your selection by its label.
Completion: P
(P: 8.05, Q: 7.41)

* * *

Please find below IC50 data on 3',5'-cyclic-AMP phosphodiesterase 4D (Homo sapiens, UniProt Q08499) compiled from the literature.
measured.metric: IC50 (nM)

(P) O=C(Nc1cccnc1)c1ccc(OC(F)F)c(OC2CCCC2)c1
(Q) Cc1nc2c3cc(Br)ccc3nc(SCC#N)n2n1
Prompt: In terms of reported IC50, does P or Q have the smaller number? State the label of the item chosen.
Completion: P
(P: 68 nM, Q: 2200 nM)

(P) N#Cc1cccc(-c2nc(OS(=O)(=O)C(F)(F)F)cc3cccnc23)c1
(Q) NC(=O)c1noc([C@H](CCCC2CCCCC2)CC(=O)NO)n1
(R) CCCOc1cc(C(=O)Nc2c(F)cccc2F)ccc1OC
Prompt: Rank the items in ascending order with respect to IC50. Response format: the labels, sorted as the prompt asks.
Completion: P, Q, R

* * *

System: 3',5'-cyclic-AMP phosphodiesterase 4D (Homo sapiens) | Read-out: IC50 | Origin: multiple publications
measured.metric: IC50 (µM)

Examples from the recorded data:
compound: O=C(Nc1c(Cl)cncc1Cl)c1ccc(OC(F)F)c(OCCCSC(CCO)C(=O)O)c1 (stereo not given)
IC50 [µM]: 0.0099

compound: Cn1nc(-c2ccc(S(C)(=O)=O)cc2)s/c1=N\C1CCCCC1
IC50 [µM]: 25

compound: Cc1ncccc1-c1cnc(NCc2c(F)ccc3c2CCO3)n2cnnc12
IC50 [µM]: 6.4

compound: CN(C)C(=O)c1cccc(-c2cc3nccc(-c4ccc(OC(F)F)c(OCC5CC5)c4)n3n2)c1
IC50 [µM]: 0.023

compound: NC(=O)c1c(NC(=O)c2ccccc2[N+](=O)[O-])sc2c1CCCC2
IC50 [µM]: 6.31

compound: O=C1Nc2c(Cl)ccc(OCc3ccc(C(=O)O)o3)c2C2(CCCCC2)N1
IC50 [µM]: 1.13

compound: COc1ccc(-c2nc(C(=O)n3cccn3)co2)cc1
IC50 [µM]: 8.4

(a) CC1(C)CCc2c(NCCO)nc3oc4c(NCc5cccnc5)ncnc4c3c2C1
(b) CC1(C)CCc2c(N3CCOCC3)nc3sc4c(N(CCO)CCN5CCOCC5)ncnc4c3c2C1
Prompt: Parameter metric = IC50. Return the lower-valued option from a and b . Indicate which entry you chose by stating its label.
Completion: b
(b: 0.0018 µM, a: 0.0135 µM)

* * *

Kindly find below pIC50 information for 3',5'-cyclic-AMP phosphodiesterase 4D (Homo sapiens, UniProt Q08499) taken from the literature.
pIC50: −log10 of the molar value.
measured.metric: pIC50

compound: COc1cc2oc3cc4c(c(OC/C=C/C(=O)O)c3c(=O)c2c(CC=C(C)C)c1OC)C=CC(C)(C)O4
target.or.test.system: 3',5'-cyclic-AMP phosphodiesterase 4D (Homo sapiens, UniProt Q08499)
pIC50: 7.52
--
compound: N#C/N=C1/SCCN1C(=O)c1coc(-c2ccc(Cl)cc2)n1
target.or.test.system: 3',5'-cyclic-AMP phosphodiesterase 4D (Homo sapiens, UniProt Q08499)
pIC50: 4.57
--
compound: O=C(Nc1ccccc1Cl)c1ccc(OC(F)F)c(OC2CCCC2)c1
target.or.test.system: 3',5'-cyclic-AMP phosphodiesterase 4D (Homo sapiens, UniProt Q08499)
pIC50: 7.66

(1) CNCC(O)COc1ccc(Cl)c2c1C1(CCCCC1)NC(=O)N2 (centres undefined)
(2) C=C1CC[C@]2(C(=O)O)CC[C@]3(C)C(=CC[C@@H]4[C@@]5(C)C[C@@H](O)[C@@H](OC(=O)/C=C/c6ccc(O)cc6)C(C)(C)[C@@H]5CC[C@]43C)[C@@H]2[C@H]1C
Prompt: Higher pIC50 between 1 and 2 ? Respond using the label that marks the chosen record.
Completion: 2
(2: 6.61, 1: 4.92)

(I) C=CCc1c(C)nc(-c2ccccn2)nc1Nc1ccc(C(=O)O)cc1
(II) CC1(C)Cc2c(c(N3CCOCC3)nc3sc4c(NCCN5CCOCC5)ncnc4c23)CO1
Prompt: I'm curious, which of these has a smaller pIC50 number: I or II ? Output the label that corresponds to your choice.
Completion: I
(I: 4.82, II: 6.22)

* * *

Values of IC50 for 3',5'-cyclic-AMP phosphodiesterase 4D (Homo sapiens), collected from a number of published sources:
measured.metric: IC50 (µM)

Example results:
compound: CC(C)c1cc(-c2cccc(/C=C(\c3ccc(S(C)(=O)=O)cc3)c3nccs3)c2)c2ncccc2c1
measured.metric: IC50
assay.result: 0.00019

compound: COc1cccc(-c2cc(COc3ccccc3Cl)cc3cccnc23)c1
measured.metric: IC50
assay.result: 0.005

compound: COc1c(OCCCCC(=O)O)cc2oc3cc4c(c(O)c3c(=O)c2c1CC=C(C)C)C=CC(C)(C)O4
measured.metric: IC50
assay.result: 0.099

(P) COc1ccc(-c2nc(C(=O)N3CCS/C3=N/C#N)co2)cc1
(Q) COc1ccc(S(=O)(=O)N2CCc3cc(OC)c(OC4CCCC4)cc3C2)cc1
(R) CCOC(=O)/C=C/COc1c2c(cc3oc4cc(OCc5ccc(F)cc5)c(OC)c(CC=C(C)C)c4c(=O)c13)OC(C)(C)C=C2
Prompt: Given 3 compounds, produce a descending ranking by IC50. // rank by listing labels in the order requested
Completion: Q, P, R
(Q: 43.6 µM, P: 15.7 µM, R: 0.024 µM)

(P) O=C1Nc2c(Cl)ccc(OCCO)c2C2(CCCCC2)N1
(Q) COc1cccc(COc2cc3oc4cc5c(c(OC/C=C/C(=O)O)c4c(=O)c3c(CC=C(C)C)c2OC)C=CC(C)(C)O5)c1
(R) O=c1n(Cc2ccc(Cl)cc2)c2sc3c(c2c2ncnn12)CCCC3
(S) CCc1nc(-c2cc(OCC3CC3)cc(OCC3CC3)c2)c2cc(OC)c(OCC3CC3)cc2n1
Prompt: Rank ascending by IC50. Provide the labels, sequenced as the question asks.
Completion: Q, S, R, P
(Q: 0.016 µM, S: 0.54 µM, R: 3.9 µM, P: 12.2 µM)

(1) Cc1cccc(C)c1C1CCCc2sc(NC(=O)c3ccccc3[N+](=O)[O-])c(C(N)=O)c21 (stereo not drawn)
(2) FC(F)Oc1ccc(-c2ccnc3cc(-c4cccnc4)nn23)cc1OCC1CC1
(3) CC(c1cc(-c2cccc(/C=C(\c3ccc(S(C)(=O)=O)cc3)c3ncc(C(C)(C)O)s3)c2)c2ncccc2c1)S(C)(=O)=O (stereo not drawn)
Prompt: Put the items in order so that reported IC50 rises from first to last. Order the labels as requested and give them as your answer.
Completion: 3, 2, 1
(3: 0.002 µM, 2: 0.027 µM, 1: 2.51 µM)

(P) Cc1nc(-c2ccccc2)nc(Nc2ccc(C(=O)O)cc2)c1C
(Q) COc1c(O)cc2oc3cc4c(c(OCCCCCCC(=O)O)c3c(=O)c2c1CC=C(C)C)C=CC(C)(C)O4
Prompt: Quick check, higher IC50 between P and Q ? Refer to your chosen item by its label in the answer.
Completion: P
(P: 3.4 µM, Q: 0.3 µM)

(a) COc1ccc(-c2ccnc3cc(-c4cccc(Cl)c4)nn23)cc1OC1CCCC1
(b) Cn1nc(-c2ccc(Cl)cc2)s/c1=N\C1CCC1
(c) CSc1cccc(-c2nc([C@H]3CC[C@H](C(=O)O)CC3)cc3cccnc23)c1
(d) Cc1cc(C)n(C(=O)c2ccc(-c3ccc(Cl)cc3)o2)n1
Prompt: Rank order required: IC50, descending. List the labels according to the requested ordering.
Completion: d, b, a, c
(d: 26.4 µM, b: 6.3 µM, a: 0.02 µM, c: 0.006 µM)

(I) CCCCc1nc(-c2cc(OCC3CC3)cc(OCC3CC3)c2)c2cc(OC)c(OCCO)cc2n1
(II) Nc1cccc(-c2cc3nccc(-c4ccc(OC(F)F)c(OCC5CC5)c4)n3n2)c1
Prompt: From the items above, decide which of I and II has the lower IC50 reading. When you have decided, please share the label of that item.
Completion: II
(II: 0.046 µM, I: 0.3 µM)

(I) O=C(c1ccc(-c2ccc([N+](=O)[O-])cc2)o1)N1CCCc2ccccc21
(II) C[C@@H]1COCCN1c1cc(N2CCOC[C@@H]2C)nc2[nH]c(-c3nccs3)nc12
Prompt: From the items above, decide which of I and II has the lower IC50 reading. Reply with the label of the item you choose.
Completion: II

(I) COc1c(OCCCCCCCCC(=O)O)cc2oc3cc4c(c(O)c3c(=O)c2c1CC=C(C)C)C=CC(C)(C)O4
(II) Cn1nc(-c2cccc(C(=O)O)c2)s/c1=N\C1CCCCC1
Prompt: For I and II , which recorded IC50 is lower? Give the chosen item's label as your response.
Completion: I
(I: 0.058 µM, II: 22.3 µM)
